- Tested on: Crude diglycosidase
- Assay summary: Examination of pH in the conversion into isoflavone aglycons by diglycosidase using soybean materials
- Format: biochemical, Penicillium multicolor IAM7153
- Assay setup: pH6.6; heat treatment of enzyme: no; reaction time 3 h
Endpoint name: Decomposition efficiency of glycitin family in defatted soybean (%)

COc1cc2c(=O)c(-c3ccc(O)cc3)coc2cc1O [glycitein] = 46.4
COc1cc2c(=O)c(-c3ccc(O)cc3)coc2cc1O[C@@H]1O[C@H](COC(=O)CC(=O)O)[C@@H](O)[C@H](O)[C@H]1O [malonylglycitin, 6″-O-malonylglycitin] = 53.6

* * *

- System: Diglycosidase derived from A. fumigatus
- Assay summary: Reactivity toward various isoflavone glycosides (HPLC)
- Type: biochemical, Aspergillus fumigatus
- Set-up: unit not given here
- Assay setup: Reaction time 1 h; 55 °C, pH 4.0
Endpoint name: aglycon

P. CC(=O)OC[C@H]1O[C@@H](Oc2cc(O)c3c(=O)c(-c4ccc(O)cc4)coc3c2)[C@H](O)[C@@H](O)[C@@H]1O
Q. COc1cc2c(=O)c(-c3ccc(O)cc3)coc2cc1O[C@@H]1O[C@H](CO)[C@@H](O)[C@H](O)[C@H]1O
R. O=C(O)CC(=O)OC[C@H]1O[C@@H](Oc2cc(O)c3c(=O)c(-c4ccc(O)cc4)coc3c2)[C@H](O)[C@@H](O)[C@@H]1O
Your job: order these 3 records by aglycon, ascending. Give the labels in the order specified.
Q, R, P

* * *

- Test system: Crude diglycosidase
- Assay summary: Examination of substrate concentration in the conversion into isoflavone aglycons by diglycosidase using soybean materials;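 also: percent of the isoflavone family total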
- Format: biochemical, Penicillium multicolor IAM7153
- Assay setup: concentrated soybean protein, substrate concentration 10%, heat treatment of enzyme yes, reaction time 6 h
Endpoint name: Decomposition efficiency: ratio of each glycoside/aglycon within its isoflavone family (%)

Below: 6 molecules and their reported Decomposition efficiency: ratio of each glycoside/aglycon within its isoflavone family.
COc1cc2c(=O)c(-c3ccc(O)cc3)coc2cc1O [glycitein] = 11.1
O=c1c(-c2ccc(O)cc2)coc2cc(O[C@@H]3O[C@H](CO)[C@@H](O)[C@H](O)[C@H]3O)cc(O)c12 [genistin] = 50.9
COc1cc2c(=O)c(-c3ccc(O)cc3)coc2cc1O[C@@H]1O[C@H](CO)[C@@H](O)[C@H](O)[C@H]1O [glycitin] = 53.4
O=c1c(-c2ccc(O)cc2)coc2cc(O[C@@H]3O[C@H](CO)[C@@H](O)[C@H](O)[C@H]3O)ccc12 [diadzin] = 53.3
COc1cc2c(=O)c(-c3ccc(O)cc3)coc2cc1O[C@@H]1O[C@H](COC(C)=O)[C@@H](O)[C@H](O)[C@H]1O [acetylglycitin, 6″-O-acetylglycitin] = 35.2
CC(=O)OC[C@H]1O[C@@H](Oc2ccc3c(=O)c(-c4ccc(O)cc4)coc3c2)[C@H](O)[C@@H](O)[C@@H]1O [acetly-daidzin] = 43.4

a. CC(=O)OC[C@H]1O[C@@H](Oc2cc(O)c3c(=O)c(-c4ccc(O)cc4)coc3c2)[C@H](O)[C@@H](O)[C@@H]1O [acetylgenistin, 6″-O-acetylgenistin]
b. COc1cc2c(=O)c(-c3ccc(O)cc3)coc2cc1O[C@@H]1O[C@H](COC(=O)CC(=O)O)[C@@H](O)[C@H](O)[C@H]1O [malonylglycitin, 6″-O-malonylglycitin]
Between the entries labeled a and b , whose measured Decomposition efficiency: ratio of each glycoside/aglycon within its isoflavone family is lower? Write down the label of the entry you select.
b
